# Test system: SF-295 CNS
# ASSAY REMARKS: NCI tumour cell line growth inhibition, 48 h
QUANTITY: TGI (µM)
Reply numerically in µM, unit not repeated.

// worked examples, TGI included
* CSc1ccc(C2=NN(C(C)=O)C(c3ccc(F)cc3)C2)cc1 (centres undefined) | 36.2
* CCOC(=O)c1cc(-c2ccc(OC)c(OC)c2)[nH]c1N/N=C/c1c(Cl)cccc1Cl | 8.31
* COc1ccc(CNc2cnc3cc(N)cc(N)c3n2)cc1 | 55.9

Here is the next item to consider.
Req: Quick one: TGI for CN1CCN(Cc2ccc(NC(=O)c3cncc(C#Cc4cnn5ccccc45)c3)cc2C(F)(F)F)CC1 ?
Resp: 3.35

====

Reported TGI values follow for various compounds
# Tested on: HT29 colon
# ASSAY REMARKS: NCI tumour cell line growth inhibition, 48 h

// worked examples, TGI included
- C=C1CC(COc2ccc3c(C)cc(=O)oc3c2)(c2ccccc2)OC1=O (stereo not given): 2.96 µM
- O=C(CCOS(=O)(=O)CF)N1CCN(C(=O)CCOS(=O)(=O)CF)CC1: > 100 µM
- O=C1/C(=C/c2cccs2)NC(=S)N1CN1CCCC(CO)C1 (stereo not given): > 100 µM
- Nc1ccc2c(c1)Oc1c(F)c(F)cc3c(=O)c(C(=O)O)cn-2c13: > 100 µM
- COc1cc2ncn(-c3cc(OCc4ccccc4C(F)(F)F)c(C(C)=O)s3)c2cc1OC: > 25 µM
- CC(=O)NC(CCCCN(Cc1ccccc1)C(=O)N(CCCl)N=O)C(=O)NCc1ccccc1 (stereo not given): > 72.4 µM

Req: Quick one: TGI for Cc1c(-c2ccccc2)c(C#N)c2nnn(-c3cccc(Cl)c3)c(=O)n12 ?
Resp: > 100 µM

Req: Quick one: TGI for COc1ncnc2c1cnn2Cc1cn(CCCCO)nn1 ?
Resp: > 100 µM

Req: Quick one: TGI for COc1ccc(/C=C2/CCS(=O)(=O)c3ccc(C)cc3C2=O)cc1OC ?
Resp: 27.6 µM

Req: Quick one: TGI for CC(C)(C)NC(=O)C12C3C4C1C1C2C3C41C(=O)NC(C)(C)C (stereo not given) ?
Resp: > 100 µM

====

# Test system: OVCAR-4 ovarian
# ASSAY REMARKS: NCI tumour cell line growth inhibition, 48 h
QUANTITY: TGI (µM)
Reply numerically in µM, unit not repeated.

• Nc1nc(N)c(N=Nc2ccc(C(=O)O)c(O)c2)c(N)n1 = 35.1

Here is the next item to consider.
Req: Quick one: TGI for CN(C)CCC1(C2=CCCC2)CC/C(=C\c2ccccc2Cl)C1=O (stereo not given) ?
Resp: 25.8

====

# System: SK-MEL-5 melanoma
# ASSAY REMARKS: NCI tumour cell line growth inhibition, 48 h
QUANTITY: GI50

// worked examples, GI50 included
- COc1cc(/C=C\c2cc(/C=C\c3ccc(O)c(OC)c3)n(C(=O)CNc3ccc(Cl)cc3)n2)ccc1O: 3240 nM
- COc1ccc2c(c1)N(CCO)C1=C(C(=O)OC1)C2c1ccccc1 (centres undefined): 1580 nM
- O=C(NN1C(=O)CSC12CCCC2)C(O)c1ccccc1 (centres undefined): > 100000 nM

Here is the next item to consider.
Req: Quick one: GI50 for CCc1nc2cc(/C=C/C(=O)NO)ccc2c(=O)n1CCc1ccc(F)cc1 ?
Resp: 903 nM

The values you see were collected from PubChem BioAssay (NCI).
